- tested.on: human c-Kit (SPR) (human, UniProt P10721 26-520, limits assumed)
- Sequence (P10721 26-520 limits assumed): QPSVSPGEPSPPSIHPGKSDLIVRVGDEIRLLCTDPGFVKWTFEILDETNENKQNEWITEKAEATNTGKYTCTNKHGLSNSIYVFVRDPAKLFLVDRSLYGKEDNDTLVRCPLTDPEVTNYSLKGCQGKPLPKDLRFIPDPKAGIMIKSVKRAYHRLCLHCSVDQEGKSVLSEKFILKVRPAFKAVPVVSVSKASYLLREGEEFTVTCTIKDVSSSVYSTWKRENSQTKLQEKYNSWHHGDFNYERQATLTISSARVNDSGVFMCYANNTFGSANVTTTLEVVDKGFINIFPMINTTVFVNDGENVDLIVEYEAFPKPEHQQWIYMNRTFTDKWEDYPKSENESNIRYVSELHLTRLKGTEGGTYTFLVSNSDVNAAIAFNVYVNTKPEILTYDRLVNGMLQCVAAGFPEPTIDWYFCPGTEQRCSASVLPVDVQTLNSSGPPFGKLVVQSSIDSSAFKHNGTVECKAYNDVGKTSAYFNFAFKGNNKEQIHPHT
- assay.comment: SPR, single-cycle kinetics, Human C-kit
observation.type: koff (s⁻¹)
Value expressed in s⁻¹; do not type the unit.

Task: # get_value(readout='koff', item= FJ2156_MH1_A x F6_12B huIgG1 KIH (bispecific antibody, V domains shown, also called MH1_A/F6.12_B) VH 1: EVQLVQSGAEVKKPGASVKVSCKASGYTFTDYYMNWVRQAPGQGLEWMGRIYPGSGNTYYAQKFQDRVTMTRDTSTSTVYMELSSLRSEDTAVYYCARGVYYYDYWGQGTLVTVSS VH 2: QVQLVQSGAEVKKPGESLKISCKGSGYRFASNWIGWVRQMPGKGLQWMGEIYPGDSNTRYSPSFQGQVTISADKSISTAYLQWSSLKASDTAMYYCARKDYYYGIMDVWGQGTTVTVSS VL: DIQMTQSPSSLSASVGDRVTITCRASQGIRTNLAWFQQKPGKAPKSLIYAASSLQSGVPSRFSGSGSGTDFTLTISSLQPEDFATYYCQQYNSYPRTFGGGTKVEIK )
Output: 0.0166
